Data credit: paper PMC9631755

Tested on: BEAS-2B cells
Experiment: MTT cell viability of BEAS-2B cells, dark and 660 nm light irradiation
Type: cell-based
Settings: light, 48 h, read-out: IC50 (cytotoxic concentration)
Readout Type: pIC50
Scale explanation: pIC50 corresponds to minus log10 of a concentration expressed in moles per litre.

Please report the measured pIC50 for COCCOCCOCCSc1cc2c(cc1SCCOCCOCCOC)-c1nc-2nc2[nH]c(nc3nc(nc4[nH]c(n1)c1cc(SCCOCCOCCOC)c(SCCOCCOCCOC)cc41)-c1cc(SCCOCCOCCOC)c(SCCOCCOCCOC)cc1-3)c1cc(SCCCCCCOCCCCCC[P+](c3ccccc3)(c3ccccc3)c3ccccc3)ccc21 [AB3TPP-Pc]
5.62
